# EXPERIMENTAL_DETAILS: LogD6.5 estimated from LogD7.4 and pKa
# ASSAY_CONDITIONS: octanol/buffer, pH 6.5
# logD values compiled below

{"columns": ["MOLECULE", "logD"],
 "data": [
  ["O=C(NCCN1CCOCC1)c1ccc(Cl)cc1 [Moclobemide]", 1.34],
  ["Cc1cc(NC(=O)C2=C(O)c3ccccc3S(=O)(=O)N2C)no1", 0.7],
  ["CC1(C)O[C@@H]2[C@@H](CO[C@@]3(COS(N)(=O)=O)OC(C)(C)O[C@@H]23)O1 [Topiramate]", 0.61],
  ["CCCN1CCCC[C@H]1C(=O)Nc1c(C)cccc1C", 1.27],
  ["C[C@H]1C[C@H]2[C@@H]3CCC4=CC(=O)C=C[C@]4(C)[C@@]3(F)[C@@H](O)C[C@]2(C)[C@@]1(O)C(=O)CO", 1.99]
]}

Please find the next molecule below.
Reported logD ( CCCN(CCC)S(=O)(=O)c1ccc(C(=O)O)cc1 ) = 0.76

----------
# EXPERIMENTAL_DETAILS: Observed clearance ratio and fraction reabsorbed (Freab, Freab′) calculated from CLR, fu,p and GFR
# ASSAY_CONDITIONS: observed/apparent; 1 - CLR/(GFR x fu,p), GFR 120 mL/min
VALUE_KIND: Freab
Enter the number alone.

Sample CC1(C)O[C@@H]2[C@@H](CO[C@@]3(COS(N)(=O)=O)OC(C)(C)O[C@@H]23)O1 [Topiramate] ; Freab observed: 0.86

Lab note: measured Freab of C[C@@H]1CN(c2c(F)c(N)c3c(=O)c(C(=O)O)cn(C4CC4)c3c2F)C[C@H](C)N1 was 0.73

Freab for CCN(CC)CCCN(c1ccccc1)C1Cc2ccccc2C1 is 0.78

Noted for Cc1c(F)c(N2CCNC(C)C2)cc2c1c(=O)c(C(=O)O)cn2C1CC1 (stereo not shown) : its Freab reads 0.35

----------
# EXPERIMENTAL_DETAILS: pKa, potentiometric AstraZeneca in-house assay (or ACD / BioByte)
# ASSAY_CONDITIONS: pKa (base), measured, potentiometric
# Text: The pKa values associated with ionisable centres identified within a given drug were used to calculate the fraction of drug ionised at pH 6.5. […]
pKa listing for selected compounds.
# output: bare number, no unit

{"columns": ["COMPOUND", "NUMBER"],
 "data": [
  ["C=CCOc1ccccc1OCC(O)CNC(C)C (centres unmarked) [Oxprenolol]", 9.6],
  ["CN1CCN(c2cc3c(cc2F)c(=O)c(C(=O)O)cn3-c2ccc(F)cc2)CC1 [Difloxacin]", 7.39],
  ["CN(C)CCCN1c2ccccc2CCc2ccccc21 [Imipramine]", 9.17],
  ["C[C@@H]1CN(c2c(F)c(N)c3c(=O)c(C(=O)O)cn(C4CC4)c3c2F)C[C@H](C)N1 [Sparfloxacin]", 8.94]
]}

Then this compound:
In plain terms, CC(C)NCC(O)COc1ccc(CCOCC2CC2)cc1 (centres unmarked) [Betaxolol] has a documented pKa of 9.53

----------
# EXPERIMENTAL_DETAILS: Ionisation classification at pH 6.5 from pKa
# Type: physicochemical
# ASSAY_CONDITIONS: predominant species (> 50%) at pH 6.5 from measured or calculated pKa
VALUE_KIND: Ionisation at pH 6.5

{"columns": ["MOLECULE", "RESULT"],
 "data": [
  ["NC(=O)c1ncn([C@@H]2O[C@H](CO)[C@@H](O)[C@H]2O)n1", "Neutral"],
  ["CN1CCN(c2cc3c(cc2F)c(=O)c(C(=O)O)cn3-c2ccc(F)cc2)CC1", "Zwitterion"],
  ["COCCc1ccc(OCC(O)CNC(C)C)cc1 (stereo not shown)", "Base"],
  ["C[C@H]1C[C@H]2[C@@H]3CCC4=CC(=O)C=C[C@]4(C)[C@@]3(F)[C@@H](O)C[C@]2(C)[C@@]1(O)C(=O)CO", "Neutral"],
  ["Cc1c(F)c(N2CCNC(C)C2)cc2c1c(=O)c(C(=O)O)cn2C1CC1 (stereo not shown)", "Zwitterion"],
  ["C[C@@H](c1ncncc1F)[C@](O)(Cn1cncn1)c1ccc(F)cc1F", "Neutral"],
  ["C[C@]12C=CC(=O)C=C1CC[C@@H]1[C@@H]2[C@@H](O)C[C@@]2(C)[C@H]1CC[C@]2(O)C(=O)CO", "Neutral"],
  ["Cc1cc(NC(=O)C2=C(O)c3ccccc3S(=O)(=O)N2C)no1", "Acid"]
]}

Value of Ionisation at pH 6.5 reported for the molecule CCCN(CCC)S(=O)(=O)c1ccc(C(=O)O)cc1 is Acid

Ionisation at pH 6.5 reported for this molecule CCCCC1=NC2(CCCC2)C(=O)N1Cc1ccc(-c2ccccc2-c2nnn[nH]2)cc1 : Acid

Per the records, this molecule ( Cc1ncc([N+](=O)[O-])n1CCO ) has Ionisation at pH 6.5 equal to Neutral

Data point: C[C@]12C=CC(=O)C=C1CC[C@@H]1[C@@H]2C(=O)C[C@@]2(C)[C@H]1CC[C@]2(O)C(=O)CO ; Ionisation at pH 6.5 = Neutral

Recorded result, Nc1ccc(S(=O)(=O)c2ccc(N)cc2)cc1 , Ionisation at pH 6.5: Neutral

Reported Ionisation at pH 6.5 for CN(C)CCC=C1c2ccccc2COc2ccccc21 [Doxepin] was Base

get_value(item= O=C(NCCN1CCOCC1)c1ccc(Cl)cc1 [Moclobemide] , readout=Ionisation at pH 6.5) returns Base
